Source: patent US11339177B2

Entries and their IC50 values follow.
Tested on: HT29 cells
experiment.summary: Necroptosis assay in HT29 cells (TNF-α, Smac mimetic, z-VAD; cell viability)
Assay type: cell-based
experimental.conditions: Homo sapiens, HT-29; TNF-α (40 ng/mL), Smacmimetic (100 nM), z-VAD (20 μM), 48 hours

compound	endpoint.unit	IC50
CC(=O)Nc1nc2ccc(-c3cnc4c(c3)N(C(=O)OC3CCCCC3)CCO4)cc2s1	nM	2
O=C(Nc1nc2ccc(-c3cnc4c(c3)N(C(=O)OC3CCOCC3)CCC4)nc2s1)C1CC1	nM	7.2
CC(=O)Nc1ccc2cc(-c3cnc4c(c3)N(C(=O)OC3CCCCC3)CCO4)ccc2n1	nM	1000
CC(=O)Nc1nc2ccc(-c3cnc4c(c3)N(C(=O)OC3CCOCC3)CCN4)cc2s1	nM	110
CNC(=O)Nc1cn2cc(-c3cnc4c(c3)N(C(=O)OCC3CC3)CC4)ccc2n1	nM	19
CNC(=O)Nc1cn2cc(-c3cnc4c(c3)N(C(=O)OC3CCOCC3)CC4)ccc2n1	nM	48.1
CNC(=O)Nc1nc2ccc(-c3cnc4c(c3)N(C(=O)OC3CCOCC3)CC4)nc2s1	nM	33.4
O=C(Nc1nc2ccc(-c3cnc4c(c3)N(C(=O)OC3CCCCC3)CCO4)nc2s1)C1CC1	nM	0.9
CC(=O)Nc1nc2ccc(-c3cnc4c(c3)N(C(=O)OC(C)C3CC3)CCO4)cc2s1 (stereo not shown)	nM	18
O=C(Nc1cn2nc(-c3cnc4c(c3)N(C(=O)OC3CCOCC3)CCO4)ccc2n1)C1CC1	nM	50
Nc1cn2nc(-c3cnc4c(c3)N(C(=O)OC3CCCCC3)CCO4)ccc2n1	nM	500
CN1CCN(C(=O)OC2CCOCC2)c2cc(-c3ccc4nc(NC(=O)C5CC5)sc4c3)cnc21	nM	18
CC(=O)Nc1nc2ccc(-c3cnc4c(c3)N(C(=O)OC3CCCCC3)C[C@H](C)O4)cc2s1	nM	3500
CC(=O)Nc1nc2ccc(-c3cnc4c(c3)N(C(=O)CC3CCOCC3)CC4)cc2s1	nM	39
O=C(Nc1nc2ccc(-c3cnc4c(c3)N(C(=O)OC3CCOCC3)CCC4)cc2s1)C1CC1	nM	1.5
O=C(Nc1nc2ccc(-c3cnc4c(c3)N(C(=O)OC3CCS(=O)(=O)CC3)CC4)cc2s1)C1CC1	nM	4.8

----------
Tested on: HT29 cells
experiment.summary: Necroptosis assay in HT29 cells (TNF-α, Smac mimetic, z-VAD; cell viability)
Format: cell-based
experimental.conditions: Homo sapiens, HT-29; TNF-α (40 ng/mL), Smacmimetic (100 nM), z-VAD (20 μM), 48 hours
pIC50: −log10 of the molar value.
Entries and their pIC50 values follow.

molecule.smiles	pIC50
CNC(=O)Nc1nc2ccc(-c3cnc4c(c3)N(C(=O)OCC3CC3)CC4)cc2s1	8.74
O=C(Nc1cn2cc(-c3cnc4c(c3)N(C(=O)CC3CCOCC3)CC4)ccc2n1)C1CC1	7.28
CC(=O)Nc1nc2ccc(-c3cnc4c(c3)N(C(=O)OC3CCCCC3)CCO4)cn2n1	7.34
CNC(=O)Nc1nc2ccc(-c3cnc4c(c3)N(C(=O)OCC3CC3)CC4)nc2s1	7.64
CC(=O)Nc1cn2cc(-c3cnc4c(c3)N(C(=O)OC3CCCCC3)CCO4)ccc2n1	9.00

----------
Test system: HT29 cells
experiment.summary: Necroptosis assay in HT29 cells (TNF-α, Smac mimetic, z-VAD; cell viability)
Type: cell-based
experimental.conditions: Homo sapiens, HT-29; inhibition of necrosis in HT29 cells, compound at 50 nM
Counter-ions that a name gives are not always drawn.
Entries and their inhibition at 0.05 µM values follow.
quantity.name: inhibition at 0.05 µM (%)

compound	quantity.name	quantitative.readout
CC(=O)Nc1cn2nc(-c3cnc4c(c3)N(C(=O)OC3CCOCC3)CCO4)ccc2n1 [Compound B20]	inhibition at 0.05 µM	20
Nc1nc2ccc(-c3cnc4c(c3)N(C(=O)OC3CCOCC3)CCO4)cc2s1 [Compound B14, hydrochloride]	inhibition at 0.05 µM	30
CC(C)(C)OC(=O)Nc1cn2nc(-c3cnc4c(c3)N(C(=O)OC3CCOCC3)CCO4)ccc2n1 [Compound B22]	inhibition at 0.05 µM	25
CC(=O)Nc1cn2cc(-c3cnc4c(c3)N(C(=O)OC3CCOCC3)CCO4)ccc2n1 [Compound B18]	inhibition at 0.05 µM	10
Nc1cn2nc(-c3cnc4c(c3)N(C(=O)OC3CCOCC3)CCO4)ccc2n1 [Compound B23]	inhibition at 0.05 µM	10

----------
Entries and their pIC50 values follow.
Tested on: L929 cells
experiment.summary: Necroptosis assay in L929 cells (TNF-α, z-VAD; cell viability by ATP levels)
Assay type: cell-based
experimental.conditions: Mus musculus, TNF-α (40 ng/mL), z-VAD (20 μM), 48 hours
pIC50: −log10 of the molar value. Structures can show the parent of a compound that is named as a salt.
quantity.name: pIC50

molecule	quantitative.readout
Nc1nc2ccc(-c3cnc4c(c3)N(C(=O)OC3CCCCC3)CCO4)cc2s1	8.44
O=C(Nc1nc2ccc(-c3cnc4c(c3)N(C(=O)OCC3CC3)CC4)cc2s1)C1CC1	9.14
CC(=O)Nc1cn2nc(-c3cnc4c(c3)N(C(=O)OC3CCOCC3)CC4)ccc2n1	7.05
O=C(Nc1cn2cc(-c3cnc4c(c3)N(C(=O)OC3CCCCC3)CCO4)ccc2n1)C1CC1	9.70
O=C(Nc1nc2ccc(-c3cnc4c(c3)N(C(=O)OC3CCCCC3)CCO4)cc2s1)C1CC1	9.23
O=C(Nc1cn2nc(-c3cnc4c(c3)N(C(=O)OC3CCCCC3)CCO4)ccc2n1)C1CC1	9.15
CC(=O)Nc1nc2ccc(-c3cnc4c(c3)N(C(=O)OC3CCCCC3)CCO4)cn2n1	7.70
O=C(Nc1nc2ccc(-c3cnc4c(c3)N(C(=O)OC3CCC(F)(F)CC3)CC4)cc2s1)C1CC1	8.89
O=C(Nc1nc2ccc(-c3cnc4c(c3)N(C(=O)OC3CCS(=O)(=O)CC3)CC4)cc2s1)C1CC1	7.82
CN1CCC(OC(=O)N2CCc3ncc(-c4ccc5nc(NC(=O)C6CC6)sc5c4)cc32)CC1	7.55
O=C(Nc1cn2nc(-c3cnc4c(c3)N(C(=O)OC3CCOCC3)CCO4)ccc2n1)C1CC1	7.51
CC(=O)Nc1nc2ccc(-c3cnc4c(c3)N(C(=O)OC3CCCOC3)CCO4)cc2s1 (stereo not drawn)	8.00
Nc1cn2nc(-c3cnc4c(c3)N(C(=O)OC3CCOCC3)CCO4)ccc2n1	7.94
CC(=O)Nc1nc2ccc(-c3cnc4c(c3)N(C(=O)OC3CCOCC3)CCO4)cc2s1	8.06
O=C(Nc1nc2ccc(-c3cnc4c(c3)N(C(=O)CC3CCOCC3)CC4)nc2s1)C1CC1	8.07
O=C(Nc1cn2cc(-c3cnc4c(c3)N(C(=O)OC3CCOCC3)CCO4)ccc2n1)C1CC1	8.00
CC(=O)Nc1nc2ccc(-c3cnc4c(c3)N(C(=O)OC3CCCCC3)C[C@@H](C)O4)cc2s1	7.52
Nc1cn2nc(-c3cnc4c(c3)N(C(=O)OC3CCCCC3)CCO4)ccc2n1	8.05
CC(=O)Nc1nc2ccc(-c3cnc4c(c3)N(C(=O)OC3CCCCC3)C[C@H](C)O4)cc2s1	7.82
CC(=O)Nc1nc2ccc(-c3cnc4c(c3)N(C(=O)OC(C)C3CC3)CCO4)cc2s1 (stereo not drawn)	8.30
CC(=O)Nc1cn2cc(-c3cnc4c(c3)N(C(=O)OC3CCCCC3)CCO4)ccc2n1	8.82
CC(C)OC(=O)N1CCc2ncc(-c3ccc4nc(NC(=O)C5CC5)sc4c3)cc21	8.35
O=C(Nc1nc2ccc(-c3cnc4c(c3)N(C(=O)OC3CCOCC3)CCO4)nc2s1)C1CC1	9.00
CNC(=O)Nc1nc2ccc(-c3cnc4c(c3)N(C(=O)OC3CCOCC3)CC4)cc2s1	8.55
Nc1nc2ccc(-c3cnc4c(c3)N(C(=O)OC3CCOCC3)CCO4)cc2s1 [Compound B14, hydrochloride]	7.90
O=C(Nc1nc2ccc(-c3cnc4c(c3)N(C(=O)OC3CCOCC3)CCO4)cc2s1)C1CC1	8.82
CC(C)(C)OC(=O)Nc1cn2nc(-c3cnc4c(c3)N(C(=O)OC3CCOCC3)CCO4)ccc2n1	7.10

----------
System: HT29 cells
experiment.summary: Necroptosis assay in HT29 cells (TNF-α, Smac mimetic, z-VAD; cell viability)
Format: cell-based
experimental.conditions: Homo sapiens, HT-29; TNF-α (40 ng/mL), Smacmimetic (100 nM), z-VAD (20 μM), 48 hours
Doc: threshold 20 nM (exclusive). Items with IC50 beneath it return y; others return n.

molecule	category.label
CC(=O)Nc1cn2nc(-c3cnc4c(c3)N(C(=O)OC3CCCCC3)CCO4)ccc2n1	y
CC(=O)Nc1nc2ccc(-c3cnc4c(c3)N(C(=O)OC3CCCOC3)CCO4)cc2s1 (centres unmarked)	y
O=C(Nc1nc2ccc(-c3cnc4c(c3)N(C(=O)OC3CCOCC3)CCO4)cc2s1)C1CC1	y
O=C(Nc1cn2cc(-c3cnc4c(c3)N(C(=O)OC3CCOCC3)CC4)ccc2n1)C1CC1	y
O=C(Nc1nc2ccc(-c3cnc4c(c3)N(C(=O)OC3CCNCC3)CC4)cc2s1)C1CC1	n
CC(=O)Nc1nc2ccc(-c3cnc4c(c3)N(C(=O)OC3CCCCC3)C[C@@H](C)O4)cc2s1	n
O=C(Nc1cn2cc(-c3cnc4c(c3)N(C(=O)OC3CCCCC3)CCO4)ccc2n1)C1CC1	y
CC(=O)Nc1nc2ccc(-c3cnc4c(c3)N(C(=O)OC3COCCOC3)CCO4)cc2s1	n
